- TEST PROTOCOL: NCI Yeast Anticancer Drug Screen. Data for the bub3 strain (AID 167)
- SETTINGS: S. cerevisiae bub3 mutant strain, at 50.0 µM, stronger effect = higher value
Compounds without any hit were thinned out: in the full panel of roughly 79,000, 15% have a hit.

| COMPOUND | growth inhibition [%] |
| --- | --- |
| CC1=NN(c2ccccc2)C(=O)/C1=C(\[O-])c1ccccc1.CC1=NN(c2ccccc2)C(=O)/C1=C(\[O-])c1ccccc1.CC1=NN(c2ccccc2)C(=O)/C1=C(\[O-])c1ccccc1.[Fe+3] | -2.9 |
| Cc1ncc([N+](=O)[O-])n1CCNC(=O)CCC(=O)NCCCn1ccnc1[N+](=O)[O-] | -31.8 |
| Cc1ccccc1C(=O)NCc1ccccc1 | 11.3 |
| Cc1ccc(C(C)C)c(OCC2=NCCN2C)c1 | -16.1 |
| C=C1CCC(OC(C)=O)C2(C)C(OC(C)=O)CC3OC3(C)C2C(OC(C)=O)C2C(C)C(=O)OC2C1Cl (centres undefined) | 3 |
| COc1ccc(/C=C/C(=O)c2sc(NC(=S)NC(=O)c3ccc(Cl)cc3)nc2C)cc1OC | -1.6 |
| CNc1nc(C)nc(NC)n1 | 18.4 |
| CC(=O)SCCCCl | 8.25 |
| CCSC(C(O)C(O)C(O)C(O)CO)n1cc(C)c(=O)[nH]c1=O (centres undefined) | 4.2 |
| COc1ccc(N)cc1CO | -12.3 |
| COc1cc2cc(-c3ccc(Cl)c(Cl)c3)[n+](C)cc2cc1OC | -3.55 |
| C1CSCCSCCCSCCSCCCSCCSCCCSCCSC1 | 21.1 |
| Cc1ccc2[nH]c(=S)[nH]c(=S)c2c1 | -33.2 |
| Nc1nc(-c2cc(Br)ccc2N=NN2CCOCC2)nc2ccc(Br)cc12 | 99 |
| CCOC(=O)C(O)(NC(C)=O)C(F)(F)F (centres undefined) | 0.2 |
| Cc1cc(Cl)ccc1NC(=O)NC(C)(C)COC(=O)Nc1cccc(Cl)c1 | 16.1 |
| COC1=C(N(C)C)C(=O)c2ccccc2C1=O | -15.3 |
| CC(C)(N=NC(C)(C)C(=O)NCCO)C(=O)NCCO | 2 |
| CC(C)CCC1(C2CCOCC2)NC(=O)NC1=O (centres undefined) | -7.55 |
| CSc1nc(SC)c(Cl)c(C(Cl)Cl)n1 | 74.8 |
| COC(=O)C1[C@@H](C(=O)OC)C12C=Cc1ccccc1C=C2 (some centres undefined) | -28.6 |
| CCc1ccc(C(=O)O)cc1S(=O)(=O)Cl | 2.55 |
| O=C1O/C(=C(\Br)c2ccccc2)c2ccccc21 | 29.1 |
| Cc1ccc(S(=O)(=O)N/N=C2/CC3CCC2C3)cc1 (centres undefined) | 17.3 |

---

- TEST PROTOCOL: NCI Yeast Anticancer Drug Screen. Data for the cln2 rad14 strain (AID 165);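 note: 0% = growth equal to vehicle treated cultures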
- SETTINGS: S. cerevisiae cln2 rad14 strain, at 50.0 µM, stronger effect = higher value
About 79,000 compounds went through this panel and 15% of them were active in at least one assay; those are over-represented in the sample as a whole.
Overview of recorded growth inhibition for various compounds

| COMPOUND | UNIT ANNOTATION | growth inhibition |
| --- | --- | --- |
| CN1CCCN(C)CCCN(C)CCCN(C)CCC1 | % | -4.65 |
| C=C1C(=O)OC2/C=C(\C)CC(O)/C=C(/CO)CC(OC(=O)/C(C)=C/C)C12 (stereo unspecified) | % | -1.9 |
| CCN(CC)CCSC(=O)C(O)(c1ccccc1)c1cccc(C)c1 (stereo unspecified) | % | -11.9 |
| N#C/C(=C\N1CC(=O)NC1=S)C(=O)c1ccc2ccccc2c1 | % | 13.5 |
| CCCCCCCCCCCCNCC(O)c1cc(-c2ccccc2)nc2c(Cl)cc(Cl)cc12 (stereo unspecified) | % | 29.1 |
| CCOC1([N+](=O)[O-])c2ccccc2-c2nc3ccccc3cc21 (stereo unspecified) | % | 63.7 |

---

- TEST PROTOCOL: NCI Yeast Anticancer Drug Screen. Data for the cln2 rad14 strain (AID 165);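 note: 0% = growth equal to vehicle treated cultures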
- SETTINGS: S. cerevisiae cln2 rad14 strain, at 50.0 µM, stronger effect = higher value
Compounds without any hit were thinned out: in the full panel of roughly 79,000, 15% have a hit. Where a SMILES comes first, the peptide text is derived from it. [ ]: non-standard residue; d: D form. Ac5c = NC1(C(=O)O)CCCC1

| COMPOUND | growth inhibition [%] |
| --- | --- |
| Cc1ccc(P(=S)(c2ccc(C)c3ccccc23)c2ccc(C)c3ccccc23)c2ccccc12 | -8.7 |
| CN(C(=O)c1ccc(Cl)cc1)C(=S)N1CCN(c2ccccn2)CC1 | -3.7 |
| CCOC(=O)C1=C(C)N(Cc2ccccc2)C2(O)C1=CC(=O)C(Cl)=C2Cl (stereo unspecified) | 54.9 |
| CCN(CC)CCNC(=O)c1c(C)cc(C)cc1C | -53.2 |
| O=c1oc2ccccc2c(O)c1C(c1cccc(C(c2c(O)c3ccccc3oc2=O)c2c(O)c3ccccc3oc2=O)c1)c1c(O)c2ccccc2oc1=O | -17.6 |
| O=c1[nH]c(NCc2ccc(Cl)cc2)nc2nc[nH]c12 | 12.2 |
| Cc1nc2sccn2c1C(=O)NC(=O)Nc1ccc(Cl)cc1 | 5.45 |
| COC(=O)C1(NC(=O)C(C)NC(=O)C(CCCCN)NC(=O)C(CC(C)C)NC(C)=O)CCCC1 (stereo unspecified) (Ac-LKA[Ac5c]-OMe; configuration not given here) | -6.25 |
| O=C1OC(c2ccccc2)=N/C1=C\c1cccc(F)c1 | -6.95 |
| NC(=S)N/N=C1\CCCCC1C(O)(C(F)(F)Cl)C(F)(F)Cl (stereo unspecified) | -8.9 |
| Cc1ccc(S(=O)(=O)N/N=C2/CC3CCC4CC2CC34)cc1 (stereo unspecified) | -25 |
| O=C1NC(N2CCOCC2)=N/C1=C\c1ccccc1O | -8.65 |
| O=C(OCC1OCOC(COC(=O)c2ccccc2)C(OC(=O)c2ccccc2)C1OC(=O)c1ccccc1)c1ccccc1 (stereo unspecified) | -13.8 |
| Cc1ccc(NC(=O)C(C)S)cc1 (stereo unspecified) | 38.6 |
| COc1cc2c(c(O)c1C)C(=O)CC(c1ccccc1)O2 (stereo unspecified) | 2.15 |
| CSC1(C)CC2C(CC1N1CCCCC1)C2(C)C (stereo unspecified) | 5.8 |
| NC1=NC=NCN1c1ccc(N)cc1 | -54.4 |
| O=C1C2=C(c3ccccc31)C(c1ccc([N+](=O)[O-])cc1)NC(=S)N2 (stereo unspecified) | 9.8 |
| COc1ccc(/C=C2\CCC(C)(CN(C)C)C2=O)cc1 (stereo unspecified) | 21.1 |
| CC1(C)CC(=O)C(/C(=N/NC(=S)NN)C(=O)Nc2nc3ccc([N+](=O)[O-])cc3s2)C(=O)C1 | -26.9 |
| NC(N)=NS(=O)(=O)c1ccc(N2C(=O)CC3(CCCC3)C2=O)cc1 | 17.6 |
| Cc1[nH]c2ccc(-c3ccccc3)cc2c1CC(=O)O | -5.85 |
| N#CCCN(c1ccc(C=O)cc1)S(=O)(=O)c1ccccc1 | 5.75 |
| CC(=O)C1=C(C)C2CC3(C)CC(C2(C)C1)C3(C)C (stereo unspecified) | 10.6 |
| O=[N+]([O-])c1ccc(CCO)cc1 | -15.4 |
| CCCCCCCC(=O)OCC1OC(n2cc(F)c(=O)[nH]c2=O)C(NC(=O)OCc2ccccc2)C(O)C1O (stereo unspecified) | -7.1 |
| COc1cc(/C=C/C(=O)NCCc2c[nH]c3ccc(O)cc23)ccc1O | 11.8 |
| CC1Cc2c([nH]c(=O)n(C)c2=O)O1 (stereo unspecified) | -1.5 |
| CC1=NOC2(C1)C(=O)Nc1ccccc12 (stereo unspecified) | 11.3 |
| O=S(=O)(OCCCC1CC2C=CC1C2)c1ccc(Br)cc1 (stereo unspecified) | -7.05 |
| C=CCNC(=O)/C(C)=C(\C)c1ccc(F)cc1 | -17.7 |
| Cc1ccc(C(=O)O)c(=O)[nH]1 | 2.05 |
| Cc1nccn1C(C)c1ccccc1 (stereo unspecified) | -95.3 |
| N=C(N)SCc1cccc2ccc3cccc(CSC(=N)N)c3c12 | -3.1 |
| CC(=O)Nc1ccc(NS(=O)(=O)c2ccc3nc(C)n(NS(=O)(=O)c4ccc(NC(C)=O)cc4)c(=O)c3c2)cc1 | 15.4 |
| CC(=O)N1c2ccccc2S(=O)(=O)c2ccccc21 | -15.9 |
| NC(=O)CC1(C(=O)O)c2ccccc2-c2ccccc21 | -7.55 |
| CN(C)CCNCCN | -1.55 |
| CC(O)C(NC(=O)c1cnc2ccccc2n1)C(=O)O (stereo unspecified) | -17.1 |
| NC(=O)/N=C/NC(N)=O | -5.3 |
| CN(C)c1ccc(/C=C(\C#N)c2c(Br)cccc2Br)cc1 | -42.8 |
| O=C1CSC(c2cccc(Cl)c2)N1N1C(=O)CSC1c1cccc(Cl)c1 (stereo unspecified) | -0.6 |
| Cc1ccc(C)c(NC(=O)C(=O)CC(=O)c2cccc3ccccc23)c1 | 17.1 |
| CCOc1ccc(Br)cc1/C=N\NC(=O)c1ccccc1N(C)C | -23.6 |
| CC1CCCC2(CN=C(Nc3ccccc3)O2)C1 (stereo unspecified) | -75 |
| CC(C)(C)CC(C)(O)COC(=S)S (stereo unspecified) | -11.2 |
